Please provide measured Percent Effect for the entries that follow.
- System: Wolbachia pipientis
- assay.protocol: Anti-Wolbachia Cell-Based Screen
- Assay type: functional
- Parameters: scale not given: in the data most compounds retested in dose-response had high values
- details: 5 µM
The campaign covered roughly 48,000 compounds. About 13,000 (27%) showed an effect of 50% or more. Some of the results follow.
All answers are understood in %, so give the number only.

Ask | Quick one: Percent Effect of CCC(C)C(=O)N(Cc1ccccn1)C1CC1 (stereo not given) ?
Reply | -10.35

Ask | Would you mind telling me what Percent Effect value was observed for `CCc1nc2ccccc2c(=O)n1CC1(O)CCN(CC(=O)OC)CC1` ?
Reply | 94.95

Ask | Quick one: Percent Effect for `CCc1nc2ccccc2c(=O)n1CC1(O)CCN(C(=O)COC)CC1.Cl` ?
Reply | 76.81

Ask | Record request: Percent Effect value, item `COc1cc(CN(C(=O)Nc2cccnc2OC)C2CC2)ccc1O`
Reply | -7.175

Ask | For `O=C(c1ccnn1-c1ccc2ccccn12)N1CCCC1` , what is its reported Percent Effect?
Reply | 84.68

Ask | For the compound shown here, CN1CC(C(=O)N(C)Cc2cc(-c3cccnc3)no2)NC1=O (stereo not given) , give the reported Percent Effect.
Reply | -3.484

Ask | # lookup: Percent Effect of `COc1ncccc1NC(=O)N(Cc1ccccn1)C1CC1`
Reply | 99.69

Ask | # input compound: `O=C(c1c2c(NCC3CC3)ncnc2n2ccccc12)N1CCOCC1` ; wanted: its Percent Effect
Reply | 2.912

Ask | May I ask what Percent Effect has been recorded for `Cc1noc(C)c1C(=O)N1C[C@H]2CCC[C@@]2(COc2ccccn2)C1.O=C(O)C(F)(F)F` ?
Reply | -9.504

Ask | Request the reported Percent Effect associated with `CN(C)S(=O)(=O)N1C[C@H]2CCC[C@@]2(COc2cccnc2)C1.O=C(O)C(F)(F)F`
Reply | 5.762
